# credit: PubChem BioAssay (NCI)

tested on: MDA-MB-468 breast; assay: NCI-60 one-dose screen, 48 h; details: 10 µM unless noted
About 83,000 compounds went through this panel and 20% of them were active in at least one assay; those are over-represented in the sample as a whole. Activity calls are given as the source filed them. How the source made its calls: active means growth percent below 10; inactive means the rest.
Classes used: active, inactive

[[record]]
compound = "CCCCC1COc2cccc3c(SCC(=O)N(C)c4cccc5ccccc45)cc[n+]1c23 (stereo unspecified)"
target_system = "MDA-MB-468 breast"
group_label = "inactive"

[[record]]
compound = "CCSCC1CC(O)(c2ccccc2)C(c2ccccc2)C(c2ccc(Cl)cc2)O1 (stereo unspecified)"
target_system = "MDA-MB-468 breast"
group_label = "inactive"

[[record]]
compound = "c1ncc2[nH]cnc2n1"
target_system = "MDA-MB-468 breast"
group_label = "inactive"

[[record]]
compound = "O=C(/C=C\\c1ccc(OCCCCCC[P+](c2ccccc2)(c2ccccc2)c2ccccc2)cc1)c1ccc2c(c1)OCCO2"
target_system = "MDA-MB-468 breast"
group_label = "active"

[[record]]
compound = "COC(=O)/C(=C\\c1c(-c2ccccc2)[nH]c2ccccc12)S(C)(=O)=O"
target_system = "MDA-MB-468 breast"
group_label = "inactive"

[[record]]
compound = "CCCC(=O)NC(c1ccc2c(c1)OC(F)(F)O2)c1cc(C)c2cccnc2c1O (stereo unspecified)"
target_system = "MDA-MB-468 breast"
group_label = "active"

[[record]]
compound = "O=C(CCCCCCSc1nc(-c2ccccc2)cc(-c2ccccc2)n1)NO"
target_system = "MDA-MB-468 breast"
group_label = "inactive"

[[record]]
compound = "C#CCNCCCN1C(=O)c2ccc3c4c(ccc(c24)C1=O)C(=O)N(CCCNCC#C)C3=O"
target_system = "MDA-MB-468 breast"
group_label = "active"

[[record]]
compound = "CC(=O)Nc1c(C(=O)Nc2ccccc2)sc2nc3c(cc12)C(OC(C)=O)CCC3 (stereo unspecified)"
target_system = "MDA-MB-468 breast"
group_label = "inactive"

[[record]]
compound = "C=CCn1c(SCC(=O)Nc2ccc(C(=O)/C=C/c3cc(OC)c(OC)c(OC)c3)cc2)nnc1-c1cc(-c2ccc(S(N)(=O)=O)cc2)nc2ccccc12"
target_system = "MDA-MB-468 breast"
group_label = "inactive"

[[record]]
compound = "CCOC(=O)C(=Cc1c(-c2ccccc2)[nH]c2ccccc12)C(=O)OCC"
target_system = "MDA-MB-468 breast"
group_label = "inactive"

[[record]]
compound = "COc1cccc(/C=C2\\COc3ccc(O)cc3C2=O)c1OC"
target_system = "MDA-MB-468 breast"
group_label = "inactive"

[[record]]
compound = "COc1cc(-c2csc(NC(=O)Nc3ccc(Cl)cc3Cl)n2)cc(OC)c1OC"
target_system = "MDA-MB-468 breast"
group_label = "inactive"

[[record]]
compound = "NC(=O)c1cc(I)ccc1NC(=O)COc1ccccc1"
target_system = "MDA-MB-468 breast"
group_label = "inactive"

[[record]]
compound = "CC(=O)N1N=C(c2ccc(Cl)cc2)CC1c1sc(Cl)nc1Cl (stereo unspecified)"
target_system = "MDA-MB-468 breast"
group_label = "inactive"

[[record]]
compound = "O=C1CSC(c2ccccc2)N1c1ccccc1 (stereo unspecified)"
target_system = "MDA-MB-468 breast"
group_label = "inactive"

[[record]]
compound = "c1ccc(-c2ccc(-c3ccccc3)[nH]2)cc1"
target_system = "MDA-MB-468 breast"
group_label = "inactive"

[[record]]
compound = "CCn1cnc(C[C@H](NC(=O)[C@@H](NC(=O)Nc2cc(C(F)(F)F)cc(C(F)(F)F)c2)C(C)C)C(=O)OC)c1"
target_system = "MDA-MB-468 breast"
group_label = "active"

[[record]]
compound = "COc1cc2c(c(OC)c1OC)-c1ccc(N)c(=O)cc1[C@@H](NC(C)=O)CC2"
target_system = "MDA-MB-468 breast"
group_label = "active"

[[record]]
compound = "O=C(Nc1nc2ccccc2s1)Nc1ccc([N+](=O)[O-])cc1Cl"
target_system = "MDA-MB-468 breast"
group_label = "inactive"

[[record]]
compound = "COc1cc2c(c(OC)c1O)C(=O)C(OC)C(c1ccc(O)c(O)c1)O2 (stereo unspecified)"
target_system = "MDA-MB-468 breast"
group_label = "active"


---

// reported growth for each item listed
system: UO-31 renal; assay: NCI-60 one-dose screen, 48 h (100 = growth as untreated, 0 = no growth, -100 = all killed); conditions: 10 µM
Compounds without any hit were thinned out: in the full panel of roughly 83,000, 20% have a hit. Activity calls are given as the source filed them. How the source made its calls: active means growth percent below 10; inactive means the rest.
quantity: growth

[[record]]
molecule_smiles = "COc1ccc(OC)c(-n2cc(C#N)c(N)c2C(=O)c2ccc(Cl)cc2Cl)c1"
observed = "56.7% (inactive)"

[[record]]
molecule_smiles = "O=C(c1ccccc1)c1ccc2nc(-c3ccccc3Br)[nH]c2c1"
observed = "-99.1% (active)"

[[record]]
molecule_smiles = "O=C(CN1CCN(c2ncnc3c2cnn3-c2ccccc2)CC1)Nc1ccc(Br)cc1"
observed = "-77% (active)"

[[record]]
molecule_smiles = "O=C(CN1CCN(c2ncnc3c2cnn3-c2ccccc2)CC1)Nc1ccc(Cl)cc1"
observed = "-60.5% (active)"


---

// reported growth for each item listed
system: MDA-MB-468 breast; test: NCI-60 one-dose screen, 48 h (100 = growth as untreated, 0 = no growth, -100 = all killed); conditions: 10 µM unless noted
Compounds without any hit were thinned out: in the full panel of roughly 83,000, 20% have a hit.
quantity: growth (%)

[[record]]
compound = "Cc1n(Cc2ccc3ccccc3c2)c2ccccc2[n+]1Cc1ccc2ccccc2c1"
target_system = "MDA-MB-468 breast"
observed = -60.8

[[record]]
compound = "COC1/C=C/OC2(C)Oc3c(C)c(O)c4c(O)c(c(C=NOC(c5ccccc5)c5ccccc5)c(O)c4c3C2=O)NC(=O)/C(C)=C/C=C/C(C)C(O)C(C)C(O)C(C)C(OC(C)=O)C1C (centres undefined)"
target_system = "MDA-MB-468 breast"
observed = 3.6

[[record]]
compound = "Cc1cccc(NC(=O)c2sc3nc4c(cc3c2N)CCCC4)c1C"
target_system = "MDA-MB-468 breast"
observed = 19.3

[[record]]
compound = "Cc1cc(N2CCN(CCNc3ccnc4cc(Cl)ccc34)CC2)nc(N2CCOCC2)n1"
target_system = "MDA-MB-468 breast"
observed = 24.3

[[record]]
compound = "CNC(=O)c1ccccc1Oc1nc(Nc2cc(OC)c(OC)c(OC)c2)ncc1Br"
target_system = "MDA-MB-468 breast"
observed = 49.6

[[record]]
compound = "O=c1[nH]c2c3ccncc3cc(-c3cccc(Cl)c3)c2c2cnccc12"
target_system = "MDA-MB-468 breast"
observed = 42.1

[[record]]
compound = "Cn1c(SC(C(=O)Nc2ccc(F)cc2)c2ccccc2)nc2ccccc2c1=O (centres undefined)"
target_system = "MDA-MB-468 breast"
observed = 99.6

[[record]]
compound = "C=C[C@]1(C)C=C2C(=O)[C@@]3(O)OC[C@@]4(CCCC(C)(C)C43O)C2(O)C(O)C1 (some centres undefined)"
target_system = "MDA-MB-468 breast"
observed = -18.7

[[record]]
compound = "COc1ccc(/C=C(/C(=O)N2CCNCC2)c2cc(OC)c(OC)c(OC)c2)cc1O"
target_system = "MDA-MB-468 breast"
observed = -4.45

[[record]]
compound = "COc1cccc(N=Nc2cccc(OC)c2)c1"
target_system = "MDA-MB-468 breast"
observed = 87.2

[[record]]
compound = "O=C1/C(=C\\c2cn(-c3ccccc3)nc2-c2ccc(-c3cccs3)cc2)CCc2ccccc21"
target_system = "MDA-MB-468 breast"
observed = 36.1

[[record]]
compound = "Cc1ccc(S(=O)(=O)N(C)CCCCCC(=O)O)cc1"
target_system = "MDA-MB-468 breast"
observed = 108

[[record]]
compound = "COc1ccc(/C=C/c2nc(NCCCN(C)C)c3ccccc3n2)cc1"
target_system = "MDA-MB-468 breast"
observed = -43.8

[[record]]
compound = "CCC(C(=O)[C@@H](C)[C@@H](O)[C@H](C)[C@@H]1O[C@@H]([C@@H](CC)C(=O)ONC(=O)c2ccccc2)CC[C@@H]1C)[C@H]1O[C@]2(C=CC(=O)[C@]3(CC[C@@](C)([C@H]4CC[C@](O)(CC)[C@H](C)O4)O3)O2)[C@H](C)C[C@@H]1C (some centres undefined)"
target_system = "MDA-MB-468 breast"
observed = -33.2

[[record]]
compound = "ONc1nc(NO)c2[nH]cnc2n1"
target_system = "MDA-MB-468 breast"
observed = 47.6

[[record]]
compound = "COc1cccc2nc(Nc3ccc(NC(=O)c4ccc5ncccc5c4)cc3)ccc12"
target_system = "MDA-MB-468 breast"
observed = 88.9

[[record]]
compound = "COc1ccc(Cc2cnc(NC(=O)c3cc(C)oc3C)s2)cc1"
target_system = "MDA-MB-468 breast"
observed = 14.8

[[record]]
compound = "COc1cc(-c2cc(C(=O)Nc3nc4ccccc4s3)nc3cc(-c4ccccc4)nn23)cc(OC)c1OC"
target_system = "MDA-MB-468 breast"
observed = 59.6

[[record]]
compound = "O=C1/C(=C/c2ccc3c(c2)OCO3)SC(=S)N1CCc1ccc(O)cc1"
target_system = "MDA-MB-468 breast"
observed = 67.8

[[record]]
compound = "Cc1ccc(C2CC3c4ccccc4C2C2CCCCN32)cc1 (centres undefined)"
target_system = "MDA-MB-468 breast"
observed = -0.132

[[record]]
compound = "C#Cc1ccc(-n2c(/C=C/c3ccc(O)c(OC)c3)nc3ncccc3c2=O)cc1"
target_system = "MDA-MB-468 breast"
observed = 89.8

[[record]]
compound = "Cc1[nH]nc2ccc3nc(-c4ccc5[nH]ncc5c4)c4c(c3c12)CCCC4"
target_system = "MDA-MB-468 breast"
observed = -6.72

[[record]]
compound = "COc1ccc(C2C(C#N)=C(N)Oc3c2sc2c(Br)cccc32)cc1 (centres undefined)"
target_system = "MDA-MB-468 breast"
observed = 3.82

[[record]]
compound = "CCC(=O)C1C(=O)c2ccccc2C1=O"
target_system = "MDA-MB-468 breast"
observed = 115

[[record]]
compound = "CO[C@H]1/C=C/O[C@@]2(C)Oc3c(C)c(O)c4c(O)c(c(/C=N/N5CCN(C)CC5)c(O)c4c3C2=O)NC(=O)/C(C)=C\\C=C\\C(C)[C@H](O)[C@@H](C)[C@@H](O)[C@@H](C)[C@@H](OC(C)=O)[C@@H]1C (some centres undefined)"
target_system = "MDA-MB-468 breast"
observed = 92.2

[[record]]
compound = "CN(C)CCCC1(c2ccc(F)cc2)OCc2cc(-c3cc4ccccc4s3)ccc21 (centres undefined)"
target_system = "MDA-MB-468 breast"
observed = -8.95

[[record]]
compound = "C[n+]1c2ccccc2c(Nc2ccc(N3CCCCC3)cc2)c2[nH]c3ccccc3c21"
target_system = "MDA-MB-468 breast"
observed = -73.8

[[record]]
compound = "c1ccc(CCc2ccccc2-c2cc(-c3ccccc3)on2)cc1"
target_system = "MDA-MB-468 breast"
observed = 93.8

[[record]]
compound = "CCOC(=O)C1=C(C)c2ccc(OC)c(OC)c2C1"
target_system = "MDA-MB-468 breast"
observed = 99.4

[[record]]
compound = "O=C(NC1CCN(Cc2ccccc2)CC1)c1cc2nc(-c3ccc(Cl)s3)cc(C(F)(F)F)n2n1"
target_system = "MDA-MB-468 breast"
observed = -66.2

[[record]]
compound = "COc1ccccc1Cn1cc2c(c1)-c1oncc1CC2"
target_system = "MDA-MB-468 breast"
observed = 6.66

[[record]]
compound = "CN(C(=O)c1ccccc1)N(C)C(=O)c1ccccc1"
target_system = "MDA-MB-468 breast"
observed = 120

[[record]]
compound = "Clc1ccc(-c2csc(Nc3cccc(Nc4csc(-c5ccc(Cl)cc5)n4)c3)n2)cc1"
target_system = "MDA-MB-468 breast"
observed = 77

[[record]]
compound = "COc1cc(-c2cc(-c3cc4c([nH]c5ccccc54)c(-c4cc(OC)c(OC)c(OC)c4)n3)cc(-c3ccccc3)n2)cc(OC)c1OC"
target_system = "MDA-MB-468 breast"
observed = 8.91

[[record]]
compound = "CN(C)CCCn1c2c(c3ncccc3c1=O)C(=O)c1ccccc1-2"
target_system = "MDA-MB-468 breast"
observed = 31.7

[[record]]
compound = "COc1ccc(/C=N/N=C(/c2ccccc2)c2ccc3nc(-c4ccc(Cl)cc4)[nH]c3c2)cc1"
target_system = "MDA-MB-468 breast"
observed = 70

[[record]]
compound = "C=CCOC(=O)C1=C(C)NC2=C(C(=O)CCC2)C1c1ccc(F)cc1 (centres undefined)"
target_system = "MDA-MB-468 breast"
observed = 92.3

[[record]]
compound = "O=S(=O)(Nc1ccccc1)c1ccc(C2CC3(Cl)C(Cl)=C(Cl)C2(Cl)C3(Cl)Cl)cc1 (centres undefined)"
target_system = "MDA-MB-468 breast"
observed = 62.2

[[record]]
compound = "Oc1ccccc1-c1nc2ccccn2c1NCCN1CCOCC1"
target_system = "MDA-MB-468 breast"
observed = 109

